Listing of entries alongside the reported PBM binding z-score.
Tested on: LXRa homodimer (NR concentration 270 nM)
Measurement notes: PBM binding z-score (relative to random genomic background probes); higher = stronger binding; sequences stand for … in GC…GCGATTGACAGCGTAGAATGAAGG

| Ordered residues | PBM binding z-score |
| --- | --- |
| TAGCCTAGGTCATTGTGCCAGTATAGTACGCATC | 1.08 |
| TGAATGAGGTCAAAGATCAGGGAACGTGGCGTCG | 1.74 |
| TTACCAAGGTGAAAGGTCATTGATGCACGCCTTG | 4.61 |
| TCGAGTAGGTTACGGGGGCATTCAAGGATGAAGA | 0.487 |
| AATACAGGGTCACTTGGCCAGAGTAGGTACGAAT | 1.39 |
| ATTTGTAGGTTATCGGGTCATTCAGTTTGCGCAT | 3.03 |
| CTATGTAGGTTAAGGGGGTCATCCAGTTTGAAAG | 2.5 |
| CCGAGTAGGTTACGAGGGGGCATTCGGTGCGAAT | 1.42 |
| CCTAGTTGGGCAGGAGGTCACACACCGGATATGA | 1.41 |
| TAGCCTAGGTCAAGCGGGCCAGTATAGTGTCGGC | 0.0899 |
| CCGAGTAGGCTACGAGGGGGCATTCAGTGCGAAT | 0.222 |
| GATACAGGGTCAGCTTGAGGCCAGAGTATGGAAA | -0.58 |
| GCTTACGGGTCAAAGGTTATAACATGAATAGAAT | 0.829 |
| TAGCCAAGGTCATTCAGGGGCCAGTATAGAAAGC | 1.66 |
| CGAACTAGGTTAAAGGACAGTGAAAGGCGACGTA | -0.254 |
| GATACAAGGTCAGCTAGAGGCCAGAGTATGGAAA | 0.325 |
| ACTCGGAGGACAAACGTCAGAGCTACGCCAGTGA | -0.482 |
| CGAACTAGGTCATAGGACAGTGAAAGGCGACGTA | 0.169 |
| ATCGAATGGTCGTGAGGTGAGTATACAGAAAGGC | -0.134 |
| AGTCAAAGTTCAGTAGGTAACGTAAGATTCAGCT | 1.6 |
| TCGAGTAGGGTACGGGGGCATTCAGGGATGAAGA | 0.643 |
| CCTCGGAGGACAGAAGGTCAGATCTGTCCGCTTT | 0.283 |
| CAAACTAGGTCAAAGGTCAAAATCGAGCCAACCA | 4.95 |
| CCGAGTAGGTAACGAGGGGGCATTCAGTGCGAAT | 0.734 |
| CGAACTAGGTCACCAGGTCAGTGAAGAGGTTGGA | 0.525 |
| ACTAGCAGGCCAAGGGTGACTCAAGATTAGTCCG | -0.435 |
| AGTCAAAGGTCACTAGGTAACGTAAGATTCAGCT | 2.46 |
| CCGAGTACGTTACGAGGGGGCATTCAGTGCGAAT | 0.927 |
| CAAGCTAGGTCAAAGGTCAAAGTCGAGCCAACCA | 5.19 |
| CGTCCAACGTCAGCAGGTCAGTGAAAGCGACGTG | -0.366 |
| ATATCTAGGTAAAAGTTCAGTGAATCCCGAGGAT | 1.24 |
| CCTACTGGGCGATTCAGAGGTCATTGATCATATG | 6.2 |
| TCGAGTAGCTTACGGGGGCATTCAGGGATGAAGA | 0.141 |
| CGAACTAGGTCAAAGGACAGTTAAAGGCGACGTA | 0.333 |
| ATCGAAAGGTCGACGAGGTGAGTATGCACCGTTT | -0.377 |
| TCTAGTTGGTGACGGAGGTCACACACGACGGGTA | 1.85 |
| CCTAGTTGGTCAGGAGGCCACACACCGGATATGA | 0.335 |
| ATCGAAAGGTCGTGAGGTGACTATACAGAAAGGC | 0.422 |
| TAGCCTAGGTCAGATCGGGCCAGTCTACGCTATA | -0.542 |
| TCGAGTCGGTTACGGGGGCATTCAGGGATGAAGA | 0.317 |
| TAGCCTAGGTCATGCGGGTCAGTATAGTGTCGGC | 1.06 |
| CCGAGTAGGTTACGAGGGGGCTTTCAGTGCGAAT | 0.44 |
| CTATGTAGGTTAAGGAGGTCATTCAGTTTGAAAG | 4.54 |
| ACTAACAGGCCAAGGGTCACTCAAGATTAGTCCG | 0.663 |
| TCGAGTAGGTTACGGGGTCATTCAGGGATGAAGA | 1.76 |
| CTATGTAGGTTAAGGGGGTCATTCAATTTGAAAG | 2.45 |
| TCTTATAGATCAATAGAGGTTAAGAAAGTGCGCT | 0.848 |
| CCTGCTAGGTCATGGTCAGGTAATCTACAGTATG | 0.355 |
| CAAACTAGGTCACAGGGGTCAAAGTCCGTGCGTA | 5.12 |
| AAATGTAGGTTAGGGTCATTCAGAAAGTAGGGAA | 1.68 |
| CCGACTGGGGCAAAGGTTACCACACTCAGTACGA | 0.137 |

src = the supplement of paper PMC6555819
